SYSTEM_NAME: GlcNAc(b1-3)Gal(b1-4)GlcNAc(b1-6)[GlcNAc(b1-3)Gal(b1-3)]GalNAc
PROTOCOL_TEXT: glycan array binding signal (z-score within array); higher = stronger binding
CONDITION_DETAILS: glycan notation: IUPAC condensed, linker removed
The entries come from a sample that favours the strongest signals as a whole.
MEASURED_METRIC: glycan array binding signal (z-score)
// return just the number, without any unit appended

Recorded glycan array binding signal (z-score) of OGAN (protein) MVQKESQATLEERESELSSNPAASAGASLEPPAAPAPGEDNPAGAGGAAVAGAAGGARRFLCGVVEGFYGRPWVMEQRKELFRRLQKWELNTYLYAPKDDYKHRMFWREMYSVEEAEQLMTLISAAREYEIEFIYAISPGLDITFSNPKEVSTLKRKLDQVSQFGCRSFALLFNDIDHNMCAADKEVFSSFAHAQVSITNEIYQYLGEPETFLFCPTEYCGTFCYPNVSQSPYLRTVGEKLLPGIEVLWTGPKVVSKEIPVESIEEVSKIIKRAPVIWDNIHANDYDQKRLFLGPYKGRSTELIPRLKGVLTNPNCEFEANYVAIHTLATWYKSNMNGVRKDVVMTDSEDSTVSIQIKLENEGSDEDIETDVLYSPQMALKLALTEWLQEFGVPHQY , please.
-0.052
